From: patent US11180510B2

# log10(IC50) annotations
Target: BRD4(BD1) (Homo sapiens, UniProt O60885)
Test: HTRF assay, BRD4(BD1)/histone peptide interaction
Type: binding
Design: made in house
Details: HTRF; mean of three experiments; NA = IC50 > 50 μM; read-out: Brd4(8D1) IC50
The common logarithm of IC50 in nM is what is listed.

Worked cases, answers included:
CCn1cnc2c1c(=O)[nH]c(=O)n2Cc1ccc(CNS(=O)(=O)c2ccc3scnc3c2)cc1 [Compound 25c]
3.20
CCn1cnc2c1c(=O)[nH]c(=O)n2Cc1ccc(CNS(=O)(=O)c2ccc(-c3ccccc3)cc2)cc1 [Compound 29b]
2.65
CCn1cnc2c1c(=O)[nH]c(=O)n2Cc1ccc(CNS(=O)(=O)c2ccc3c(c2)CCCC(=O)N3)cc1 [Compound 27c]
2.45

Task: Given CCn1cnc2c1c(=O)[nH]c(=O)n2Cc1ccc(CNS(=O)(=O)c2ccc(N3CCOCC3)cc2)cc1 [Compound 45a] , state its recorded log10(IC50).
Output: 1.94

Task: Given Cc1noc(C)c1CCNC(=O)c1ccc(CNS(=O)(=O)c2ccc3c(c2)CCCC(=O)N3)cc1 [Compound 16a] , state its recorded log10(IC50).
Output: 4.04

Task: Given CCn1cnc2c1c(=O)[nH]c(=O)n2Cc1ccc(CNS(=O)(=O)c2ccc3c(c2)CCC(=O)N3)cc1 [Compound 27b] , state its recorded log10(IC50).
Output: 2.88

Task: Given CCn1cnc2c1c(=O)[nH]c(=O)n2Cc1ccc(CNS(=O)(=O)c2ccc3c(c2)CCCC(=O)N3)c2ccccc12 [Compound 31c] , state its recorded log10(IC50).
Output: 3.54

###

Biological target: BRD4(BD1) (Homo sapiens, UniProt O60885)
Experiment: HTRF assay, BRD4(BD1)/histone peptide interaction
Type: binding
Set-up: made in house
Conditions: selectivity Brd4(BD1) vs Brd4(BD2), HTRF IC50
Experimental: HTRF assays were performed in white 384 Well Small Volume™ HiBase Polystyrene Microplates (Greiner) with a total working volume of 20 μL. […] Percentage of inhibition was calculated using the following equation: % inhibition=[(compound signal)−(min signal)]/[(max signal)−(min signal)]*100, where ‘max signal’ is the signal ratio with the compound vehicle alone (DMSO) and ‘min signal’ the signal ratio without peptide. […]
Label Y when Ratio 4-1 vs 4-2 is at or above 10; anything below gets N.

Here are 2 compounds together with their reported answers.
CCn1cnc2c1c(=O)[nH]c(=O)n2Cc1ccc(CNS(=O)(=O)c2ccc(-c3cc(C)n[nH]3)s2)cc1 [Compound 25a]
Y
CCn1cnc2c1c(=O)[nH]c(=O)n2Cc1ccc(CNS(=O)(=O)c2ccc(OC3CCOCC3)c(F)c2)cc1 [Compound 43c]
Y

Task: Ratio 4-1 vs 4-2 >= 10 for CCn1cnc2c1c(=O)[nH]c(=O)n2Cc1ccc(CNS(=O)(=O)c2ccc3scnc3c2)cc1 [Compound 25c] ?
Output: Y

Task: Ratio 4-1 vs 4-2 >= 10 for CCn1c(CSc2nc3nc(C)cc(C)n3n2)nc2c1c(=O)[nH]c(=O)n2Cc1ccc(CNS(=O)(=O)c2ccc3c(c2)CCCC(=O)N3)cc1 [Compound 32b] ?
Output: Y

Task: Ratio 4-1 vs 4-2 >= 10 for CCn1cnc2c1c(=O)[nH]c(=O)n2Cc1ccc(CNS(=O)(=O)c2ccc3c(c2)CCCC(=O)N3)c2ccccc12 [Compound 31c] ?
Output: N

Task: Ratio 4-1 vs 4-2 >= 10 for CCn1cnc2c1c(=O)[nH]c(=O)n2Cc1ccc(CNS(=O)(=O)c2ccc(OCc3ccccc3)cc2)cc1 [Compound 31a] ?
Output: Y
